tested on: Non-small cell lung cancer subpanel; experiment: NCI five-dose assay, subpanel mean; format: cell-based, human; settings: Non-small cell lung cancer subpanel
result.type: GI50 Selectivity Ratio (MID a/MID b)
Lab note: record the figure alone, no unit after it.

Study these solved cases before continuing.
molecule	GI50 Selectivity Ratio (MID a/MID b)
O/N=C(\CSc1nnc(-c2c[nH]c3ccccc23)n1-c1ccccc1)c1ccc(Cl)cc1 [Compound 7j]	0.945
O/N=C(\CSc1nnc(-c2c[nH]c3ccccc23)n1-c1ccccc1)c1ccc(Br)cc1 [Compound 7i]	0.87
Cc1ccc(/C(CSc2nnc(-c3c[nH]c4ccccc34)n2-c2ccccc2)=N/O)cc1 [Compound 7h]	0.68

Query molecule follows.
Exam item: Which GI50 Selectivity Ratio (MID a/MID b) value is on record for Cc1ccc(C(=O)CSc2nnc(-c3c[nH]c4ccccc34)n2-c2ccccc2)cc1 [Compound 6h] ?
Marked response: 1.29

---

test system: panel of 60 human tumor cell lines; test: NCI five-dose assay, full panel; type: cell-based; conditions: average sensitivity of all cell lines, read-out: GI50 MID a
Here, each record is paired with measured GI50 data.
The reply should be a number in µM, with the unit left off.

Some solved cases for reference:
substance.smiles	GI50 [µM]
O/N=C(\CSc1nnc(-c2c[nH]c3ccccc23)n1-c1ccccc1)c1ccc(Cl)cc1	3.65
Cc1ccc(C(=O)CSc2nnc(-c3c[nH]c4ccccc34)n2-c2ccccc2)cc1	19.3
Cc1ccc(/C(CSc2nnc(-c3c[nH]c4ccccc34)n2-c2ccccc2)=N/O)cc1	3

Pending molecule:
Exam item: Value lookup for GI50; key = O/N=C(\CSc1nnc(-c2c[nH]c3ccccc23)n1-c1ccccc1)c1ccc(Br)cc1
Marked response: 2.8

---

System: MDA-MB-231/ATCC
Assay: NCI one-dose assay
Format: cell-based
Conditions: Homo sapiens, Breast cancer, read-out: Cell growth inhibition %
Protocol: The National Cancer Institute (NCI), Bethesda, USA, selected the final compounds 6a–j and 7a–j for in vitro anticancer screening. An initial in vitro single-dose anticancer experiment was performed with the entire NCI 60 cell lines derived from nine tumor subpanel cancer cell lines. The results for each compound were illustrated as a mean graph showing the percentage growth of treated cells compared to untreated control cells (see Supplementary Materials). […]
Reported inhibition at 10 µM maps to class as: low range: < 10%; mid range: ≥ 10% and < 50%; high range: ≥ 50%

Example entries begin here.
molecule	target.entity	class.name
C=CCn1c(SC/C(=N\O)c2ccc(Br)cc2)nnc1-c1c[nH]c2ccccc12 [Compound 7d]	MDA-MB-231/ATCC	mid range
C=CCn1c(SCC(=O)c2ccc(Br)cc2)nnc1-c1c[nH]c2ccccc12 [Compound 6d]	MDA-MB-231/ATCC	low range
C=CCn1c(SC/C(=N\O)c2ccc(Cl)cc2)nnc1-c1c[nH]c2ccccc12 [Compound 7e]	MDA-MB-231/ATCC	mid range
Cc1ccc(C(=O)CSc2nnc(-c3c[nH]c4ccccc34)n2-c2ccccc2)cc1 [Compound 6h]	MDA-MB-231/ATCC	high range
O/N=C(\CSc1nnc(-c2c[nH]c3ccccc23)n1-c1ccccc1)c1ccccc1 [Compound 7f]	MDA-MB-231/ATCC	mid range
C=CCn1c(SC/C(=N\O)c2ccc(C)cc2)nnc1-c1c[nH]c2ccccc12 [Compound 7c]	MDA-MB-231/ATCC	low range
C=CCn1c(SCC(=O)c2ccccc2)nnc1-c1c[nH]c2ccccc12 [Compound 6a]	MDA-MB-231/ATCC	mid range
C=CCn1c(SCC(=O)c2ccc(C)cc2)nnc1-c1c[nH]c2ccccc12 [Compound 6c]	MDA-MB-231/ATCC	mid range
O/N=C(\CSc1nnc(-c2c[nH]c3ccccc23)n1-c1ccccc1)c1ccc(Cl)cc1 [Compound 7j]	MDA-MB-231/ATCC	high range
C=CCn1c(SCC(=O)c2ccc(OC)cc2)nnc1-c1c[nH]c2ccccc12 [Compound 6b]	MDA-MB-231/ATCC	mid range

Note: attention shifts to another entry.
Exam item: Hi, small favor: classify O=C(CSc1nnc(-c2c[nH]c3ccccc23)n1-c1ccccc1)c1ccccc1 [Compound 6f] by its inhibition at 10 µM when you get a moment.
Marked response: high range

---

tested on: MDA-MB-468; experiment: NCI one-dose assay; assay type: cell-based; settings: Homo sapiens, MDA-MB-468, Breast cancer, read-out: Cell growth inhibition %
result.type: inhibition at 10 µM (%)
Lab book: enter the figure in %, no units written.

substance.smiles	inhibition at 10 µM (%)
O/N=C(\CSc1nnc(-c2c[nH]c3ccccc23)n1-c1ccccc1)c1ccccc1	64.6
C=CCn1c(SCC(=NO)c2ccc(OC)cc2)nnc1-c1c[nH]c2ccccc12	16.3
C=CCn1c(SCC(=O)c2ccccc2)nnc1-c1c[nH]c2ccccc12	12.3
Cc1ccc(C(=O)CSc2nnc(-c3c[nH]c4ccccc34)n2-c2ccccc2)cc1	52
COc1ccc(C(=O)CSc2nnc(-c3c[nH]c4ccccc34)n2-c2ccccc2)cc1	40.2
O=C(CSc1nnc(-c2c[nH]c3ccccc23)n1-c1ccccc1)c1ccc(Cl)cc1	53.6
C=CCn1c(SCC(=O)c2ccc(Cl)cc2)nnc1-c1c[nH]c2ccccc12	8

Note: attention shifts to another entry.
Exam item: Endpoint output: inhibition at 10 µM of C=CCn1c(SCC(=O)c2ccc(C)cc2)nnc1-c1c[nH]c2ccccc12 . Value?
Marked response: 12.5

---

tested on: SK-MEL-28; assay: NCI one-dose assay; assay type: cell-based; conditions: Homo sapiens, SK-MEL-28, Melanoma, read-out: Cell growth inhibition %
result.type: inhibition at 10 µM (%)
Note: unit % is implicit; provide only the numeric part.

compound	inhibition at 10 µM, %
COc1ccc(C(=O)CSc2nnc(-c3c[nH]c4ccccc34)n2-c2ccccc2)cc1 [Compound 6g]	50.3
C=CCn1c(SC/C(=N\O)c2ccc(Br)cc2)nnc1-c1c[nH]c2ccccc12 [Compound 7d]	7.82
C=CCn1c(SC/C(=N\O)c2ccc(C)cc2)nnc1-c1c[nH]c2ccccc12 [Compound 7c]	-5.62
O=C(CSc1nnc(-c2c[nH]c3ccccc23)n1-c1ccccc1)c1ccc(Cl)cc1 [Compound 6j]	31.7
COc1ccc(/C(CSc2nnc(-c3c[nH]c4ccccc34)n2-c2ccccc2)=N/O)cc1 [Compound 7g]	62.6
C=CCn1c(SCC(=O)c2ccc(Cl)cc2)nnc1-c1c[nH]c2ccccc12 [Compound 6e]	-10.1
O/N=C(\CSc1nnc(-c2c[nH]c3ccccc23)n1-c1ccccc1)c1ccc(Cl)cc1 [Compound 7j]	78.8
O/N=C(\CSc1nnc(-c2c[nH]c3ccccc23)n1-c1ccccc1)c1ccc(Br)cc1 [Compound 7i]	126
C=CCn1c(SCC(=O)c2ccc(C)cc2)nnc1-c1c[nH]c2ccccc12 [Compound 6c]	-4.91

Read the next record carefully.
Exam item: Look up inhibition at 10 µM: C=CCn1c(SC/C(=N\O)c2ccccc2)nnc1-c1c[nH]c2ccccc12 [Compound 7a]
Marked response: -4.36

---

system: A549/ATCC; test: NCI one-dose assay; format: cell-based; settings: Homo sapiens, Non-small cell lung cancer, read-out: Cell growth inhibition %
Below, each entry is listed with its recorded inhibition at 10 µM.
Provide the reading as a plain figure in %.

Use the examples below as a reference point.
substance.smiles	endpoint.result
C=CCn1c(SCC(=NO)c2ccc(OC)cc2)nnc1-c1c[nH]c2ccccc12	-9.29
C=CCn1c(SC/C(=N\O)c2ccc(Cl)cc2)nnc1-c1c[nH]c2ccccc12	6.38
COc1ccc(C(=O)CSc2nnc(-c3c[nH]c4ccccc34)n2-c2ccccc2)cc1	26
O=C(CSc1nnc(-c2c[nH]c3ccccc23)n1-c1ccccc1)c1ccc(Br)cc1	70.1
C=CCn1c(SCC(=O)c2ccc(C)cc2)nnc1-c1c[nH]c2ccccc12	5.97

Exam item: Which inhibition at 10 µM value belongs to O=C(CSc1nnc(-c2c[nH]c3ccccc23)n1-c1ccccc1)c1ccccc1 ?
Marked response: 14.5

Exam item: Any idea what inhibition at 10 µM was measured for C=CCn1c(SCC(=O)c2ccccc2)nnc1-c1c[nH]c2ccccc12 ?
Marked response: -0.25

---

system: HS 578 T; assay: NCI one-dose assay; assay type: cell-based; conditions: Homo sapiens, Breast cancer, read-out: Cell growth inhibition %
result.type: inhibition at 10 µM (%)
Please give a number only; it is taken to be in %.

Illustrative cases are given below, each with its answer.
substance.smiles	endpoint.result
Cc1ccc(C(=O)CSc2nnc(-c3c[nH]c4ccccc34)n2-c2ccccc2)cc1	101
O=C(CSc1nnc(-c2c[nH]c3ccccc23)n1-c1ccccc1)c1ccc(Br)cc1	47.7
C=CCn1c(SCC(=O)c2ccc(Br)cc2)nnc1-c1c[nH]c2ccccc12	-5.71

Then this compound:
Exam item: inhibition at 10 µM lookup needed for O/N=C(\CSc1nnc(-c2c[nH]c3ccccc23)n1-c1ccccc1)c1ccc(Cl)cc1 , thanks.
Marked response: 132

---

system: MDA-MB-231/ATCC; test: NCI one-dose assay; assay type: cell-based; conditions: Homo sapiens, Breast cancer, read-out: Cell growth inhibition %
// inhibition at 10 µM lookup, one value per entry
Numeric answer only, unit % assumed.

Answered cases to consult:
substance.smiles	inhibition at 10 µM [%]
COc1ccc(C(=O)CSc2nnc(-c3c[nH]c4ccccc34)n2-c2ccccc2)cc1	54.4
Cc1ccc(/C(CSc2nnc(-c3c[nH]c4ccccc34)n2-c2ccccc2)=N/O)cc1	182
O/N=C(\CSc1nnc(-c2c[nH]c3ccccc23)n1-c1ccccc1)c1ccc(Br)cc1	184
O=C(CSc1nnc(-c2c[nH]c3ccccc23)n1-c1ccccc1)c1ccc(Cl)cc1	48.3
C=CCn1c(SC/C(=N\O)c2ccccc2)nnc1-c1c[nH]c2ccccc12	3.9
C=CCn1c(SCC(=O)c2ccc(Cl)cc2)nnc1-c1c[nH]c2ccccc12	8.19

Exam item: Please report the recorded inhibition at 10 µM for C=CCn1c(SCC(=NO)c2ccc(OC)cc2)nnc1-c1c[nH]c2ccccc12 .
Marked response: 13.5

Exam item: Request the reported inhibition at 10 µM associated with O=C(CSc1nnc(-c2c[nH]c3ccccc23)n1-c1ccccc1)c1ccc(Br)cc1
Marked response: 34

Exam item: Which inhibition at 10 µM value belongs to COc1ccc(/C(CSc2nnc(-c3c[nH]c4ccccc34)n2-c2ccccc2)=N/O)cc1 ?
Marked response: 39.3
